Where these numbers come from: patent US10683297B2

assay: Pharmacokinetics after intravenous and oral administration in rats; format: in vivo; settings: rat, plasma, oral (generally 5 or 10 mg/kg) versus iv dosing, read-out: F (oral bioavailability)
Field: class. Source value: bioavailability. Ranges: bin 0 (below 50%), bin 1 (50% to below 80%), bin 2 (80% or more)

For orientation, consider the following solved cases.
molecule="CCC1CN(c2ccc(C#N)cn2)CCC1Nc1nc(Nc2ccn3cnnc3c2)ncc1Cl (stereo not drawn) [Example 5]" assigned_class="bin 0"
molecule="Cc1cnc2cc(Nc3ncc(Cl)c(NC4CCN(c5ccc(C#N)cn5)CC4)n3)ccn12 [Example 23]" assigned_class="bin 1"
molecule="CC(C)(O)Cn1nnc2cc(Nc3ncc(Cl)c(NC4CCN(c5ccc(C#N)cn5)CC4)n3)ccc21 [Example 69]" assigned_class="bin 1"
molecule="CC(C)(O)Cc1nc2cc(Nc3ncc(Cl)c(NC4CCN(c5ccc(C#N)cn5)CC4)n3)ccn2n1 [Example 78]" assigned_class="bin 2"
molecule="Cn1cnc2cc(Nc3ncc(Cl)c(NC4CCN(c5ccc(C#N)nn5)CC4)n3)ccc21 [Example 50]" assigned_class="bin 1"
molecule="Cc1nc2cc(Nc3ncc(Cl)c(NC4CCN(c5ccc(C#N)nn5)CC4)n3)ccn2n1 [Example 35]" assigned_class="bin 1"
molecule="CC(C)(O)c1cn2ccc(Nc3ncc(Cl)c(NC4CCN(c5ccc(C#N)cn5)CC4)n3)cc2n1 [Example 70]" assigned_class="bin 0"
molecule="CC(C)(O)Cc1cn2cc(Nc3ncc(Cl)c(NC4CCN(c5ccc(C#N)cn5)CC4)n3)ccc2n1 [Example 73]" assigned_class="bin 1"

Band for the recorded bioavailability of Cc1nc2cc(Nc3ncc(Cl)c(NC4CCN(c5ccc(C#N)cn5)CC4)n3)ccn2n1 [Example 32] ?
bin 2

Band for the recorded bioavailability of CN(c1nc(Nc2ccc3ncnn3c2)ncc1Cl)C1CCN(c2ccc(C#N)cn2)CC1 [Example 9] ?
bin 1

Band for the recorded bioavailability of Cc1cn2ncc(Nc3ncc(Cl)c(NC4CCN(c5ccc(C#N)cn5)CC4)n3)cc2n1 [Example 37] ?
bin 0

Band for the recorded bioavailability of N#Cc1ccc(N2CCC(Nc3nc(Nc4ccn5c(C(F)F)nnc5c4)ncc3Cl)CC2)nc1 [Example 30] ?
bin 2
